experimental.system: hGHQ40N, P01241
Sequence (P01241 27-217 Q66N): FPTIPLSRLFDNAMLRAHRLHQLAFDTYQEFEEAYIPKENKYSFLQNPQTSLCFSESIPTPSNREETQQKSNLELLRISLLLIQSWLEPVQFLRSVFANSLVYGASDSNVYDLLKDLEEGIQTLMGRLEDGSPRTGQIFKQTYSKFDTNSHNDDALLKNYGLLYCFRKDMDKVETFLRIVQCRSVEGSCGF
attribute.measured: Activity towards hGHQ40N (RFU/sec/µg)

• GlyPro-mTGase from S. mobaraensis (protein) GPDSDDRVTPPAEPLDRMPDPYRPSYGRAETVVNNYIRKWQQVYSHRDGRKQQMTEEQREWLSYGCVGVTWVNSGQYPTNRLAFASFDEDRFKNELKNGRPRSGETRAEFEGRVAKESFDEEKGFQRAREVASVMNRALENAHDESAYLDNLKKELANGNDALRNEDARSPFYSALRNTPSFKERNGGNHDPSRMKAVIYSKHFWSGQDRSSSADKRKYGDPDAFRPAPGTGLVDMSRDRNIPRSPTSPGEGFVNFDYGWFGAQTEADADKTVWTHGNHYHAPNGSLGAMHVYESKFRNWSEGYSDFDRGAYVITFIPKSWNTAPDKVKQGWP = 4.28
• GlyPro-mTGase from S. ladakanum (protein) GPDSDERVTPPAEPLDRMPDPYRPSYGRAETIVNNYIRKWQQVYSHRDGRKQQMTEEQREWLSYGCVGVTWVNSGQYPTNRLAFAFFDEDKYKNELKNGRPRSGETRAEFEGRVAKDSFDEAKGFQRARDVASVMNKALENAHDEGAYLDNLKKELANGNDALRNEDARSPFYSALRNTPSFKDRNGGNHDPSKMKAVIYSKHFWSGQDRSGSSDKRKYGDPEAFRPDRGTGLVDMSRDRNIPRSPTSPGESFVNFDYGWFGAQTEADADKTVWTHGNHYHAPNGSLGAMHVYESKFRNWSDGYSDFDRGAYVVTFVPKSWNTAPDKVKQGWP = 4.25

Data origin: patent US20090318349
